Catalogue of Modal MIC90 values
# Test system: C. auris TDG 1912
# measurement-notes: microbe, parasite or virus in culture
# Type: cell-based, Candida auris
# applied-conditions: C. auris TDG 1912; shown in µM
Where a SMILES comes first, the peptide text is derived from it.

// known answers, use as guide
- molecule: "CC(C)C[C@H](NC(=O)[C@H](CCCCN)NC(=O)[C@H](CCCCN)NC(=O)[C@H](C)NC(=O)[C@H](CC(C)C)NC(=O)[C@H](CCCCN)NC(=O)[C@H](CO)NC(=O)[C@H](CCCCN)NC(=O)[C@H](Cc1c[nH]c2ccccc12)NC(=O)[C@H](C)NC(=O)[C@H](CCCCN)NC(=O)[C@H](CCCCN)NC(=O)[C@H](CC(C)C)NC(=O)[C@H](Cc1ccccc1)NC(=O)[C@H](CO)NC(=O)CN)C(N)=O [PS-PB-16a] (H-GSFLKKAWKSKLAKKL-NH2)"
  result-type: "Modal MIC90"
  result: "> 67.8 µM"
- molecule: "CC[C@H](C)[C@H](NC(=O)[C@H](CCCCN)NC(=O)[C@H](CC(C)C)NC(=O)[C@H](C)NC(=O)[C@H](C)NC(=O)[C@H](CCCCN)NC(=O)[C@H](CC(C)C)NC(=O)[C@H](C)NC(=O)[C@@H](N)CCCCN)C(=O)NCC(=O)N[C@@H](C)C(=O)N[C@@H](CC(N)=O)C(N)=O [CPF-P3-12a] (H-KALKAALKIGAN-NH2)"
  result-type: "Modal MIC90"
  result: "> 103.8 µM"
- molecule: "CC[C@H](C)[C@H](NC(=O)[C@H](C)NC(=O)CNC(=O)[C@H](C)NC(=O)[C@H](CCCCN)NC(=O)[C@H](CO)NC(=O)[C@H](C)NC(=O)[C@H](CCSC)NC(=O)CN)C(=O)N[C@@H](C)C(=O)NCC(=O)N[C@@H](CCCCN)C(=O)N[C@H](C(=O)N[C@@H](C)C(=O)N[C@@H](CCCCN)C(=O)N[C@H](C(=O)N[C@@H](C)C(=O)N[C@@H](CC(C)C)C(=O)N[C@@H](CCCCN)C(=O)N[C@@H](C)C(=O)N[C@@H](CC(C)C)C(N)=O)C(C)C)[C@@H](C)CC [DRAMP02272a] (H-GMASKAGAIAGKIAKVALKAL-NH2)"
  result-type: "Modal MIC90"
  result: "> 64 µM"
- molecule: "CC[C@H](C)[C@H](N)C(=O)N[C@@H](CCCNC(=N)N)C(=O)NCC(=O)N[C@@H](Cc1ccc(O)cc1)C(=O)N[C@@H](CCCCN)C(=O)NCC(=O)NCC(=O)N[C@@H](Cc1ccc(O)cc1)C(=O)N[C@@H](CS)C(=O)N[C@@H](CCCCN)C(N)=O [Os(3-12)a] (H-IRGYKGGYCK-NH2)"
  result-type: "Modal MIC90"
  result: "> 112 µM"
- molecule: "CC[C@H](C)[C@H](NC(=O)[C@H](CCCCN)NC(=O)[C@H](CC(C)C)NC(=O)[C@H](C)NC(=O)[C@H](C)NC(=O)[C@H](CCCCN)NC(=O)[C@H](CC(C)C)NC(=O)[C@H](C)NC(=O)[C@@H](N)CCCCN)C(=O)NCC(N)=O [CPF-P3-10a] (H-KALKAALKIG-NH2)"
  result-type: "Modal MIC90"
  result: "> 122 µM"

Please turn your attention to the following entry.
INPUT: Requested field: Modal MIC90. Item: CC[C@H](C)[C@H](N)C(=O)N[C@@H](CC(C)C)C(=O)N[C@@H](CCCCN)C(=O)N[C@@H](CCCCN)C(=O)N[C@H](C(=O)N[C@@H](Cc1c[nH]c2ccccc12)C(=O)N[C@@H](CCC(=O)O)C(=O)NCC(=O)N[C@H](C(=O)N[C@@H](CCCCN)C(=O)N[C@@H](CO)C(=O)N[C@@H](CC(C)C)C(=O)N[C@@H](Cc1ccccc1)C(N)=O)[C@@H](C)CC)[C@@H](C)CC [K3-IsCTa] (H-ILKKIWEGIKSLF-NH2)
OUTPUT: > 79.5 µM

====

# System: C. tropicalis NCPF 8760
# measurement-notes: microbe, parasite or virus in culture
# Type: cell-based
# applied-conditions: C. tropicalis NCPF 8760; shown in µM
Where a SMILES comes first, the peptide text is derived from it.
Catalogue of Modal MIC50 values
Just the number in µM, nothing appended.

- molecule: "CC[C@H](C)[C@H](NC(=O)[C@H](Cc1c[nH]c2ccccc12)NC(=O)[C@H](CC(=O)O)NC(=O)[C@H](Cc1c[nH]c2ccccc12)NC(=O)[C@@H](NC(=O)[C@H](CCCCN)NC(=O)CN)C(C)C)C(=O)N[C@@H](CCCCN)C(=O)N[C@@H](CO)C(=O)N[C@H](C(=O)N[C@@H](C)C(=O)N[C@@H](CCCCN)C(=O)N[C@@H](CCCCN)C(=O)N[C@@H](CC(C)C)C(=O)N[C@@H](Cc1c[nH]c2ccccc12)C(=O)N[C@@H](CC(N)=O)C(N)=O)[C@@H](C)O [Opis16a] (H-GKVWDWIKSTAKKLWN-NH2)"
  output-unit: "µM"
  Modal MIC50: 4
- molecule: "CC[C@H](C)[C@H](N)C(=O)N[C@@H](CC(C)C)C(=O)N[C@@H](CCCCN)C(=O)N[C@@H](CCCCN)C(=O)N[C@H](C(=O)N[C@@H](Cc1c[nH]c2ccccc12)C(=O)N[C@@H](CCC(=O)O)C(=O)NCC(=O)N[C@H](C(=O)N[C@@H](CCCCN)C(=O)N[C@@H](CO)C(=O)N[C@@H](CC(C)C)C(=O)N[C@@H](Cc1ccccc1)C(N)=O)[C@@H](C)CC)[C@@H](C)CC [K3-IsCTa] (H-ILKKIWEGIKSLF-NH2)"
  output-unit: "µM"
  Modal MIC50: 2.5
- molecule: "CC[C@H](C)[C@H](NC(=O)[C@H](CCCCN)NC(=O)[C@H](CCC(=O)O)NC(=O)[C@H](Cc1c[nH]c2ccccc12)NC(=O)[C@H](Cc1ccccc1)NC(=O)[C@H](CCCCN)NC(=O)CNC(=O)[C@H](CC(C)C)NC(=O)[C@H](C)N)C(=O)N[C@@H](CCCCN)C(=O)N[C@@H](CO)C(=O)N[C@@H](CC(C)C)C(=O)N[C@@H](Cc1ccccc1)C(N)=O [A1F5K8-IsCTa] (H-ALGKFWEKIKSLF-NH2)"
  output-unit: "µM"
  Modal MIC50: 5

Please turn your attention to the following entry.
INPUT: Item: CC[C@H](C)[C@H](NC(=O)[C@H](C)NC(=O)[C@H](CCCCN)NC(=O)[C@@H]1CCCN1C(=O)[C@@H](NC(=O)[C@H](CC(C)C)NC(=O)[C@H](CO)NC(=O)[C@H](Cc1ccccc1)NC(=O)[C@H](CC(C)C)NC(=O)[C@@H](N)Cc1ccccc1)[C@@H](C)CC)C(=O)NCC(=O)NCC(=O)N[C@@H](CC(C)C)C(=O)N[C@H](C(=O)N[C@@H](CO)C(=O)N[C@@H](C)C(=O)N[C@@H](Cc1ccccc1)C(=O)N[C@@H](CCCCN)C(N)=O)[C@@H](C)CC [AamAP-S1a] Test system: C. tropicalis NCPF 8760 Read-out: Modal MIC50 Value: ?
OUTPUT: 8.1

====

# System: C. parapsilosis NCPF 3209
# measurement-notes: microbe, parasite or virus in culture
# Assay type: cell-based
# applied-conditions: NCPF 3209, 20 h
Where a SMILES comes first, the peptide text is derived from it.
result-type: Modal MIC50

// known answers, use as guide
- compound: "CC[C@H](C)[C@H](NC(=O)[C@@H](N)CCCCN)C(=O)N[C@@H](C)C(=O)N[C@@H](CCCCN)C(=O)N[C@H](C(=O)N[C@@H](C)C(=O)N[C@@H](CC(C)C)C(=O)N[C@@H](CCCCN)C(=O)N[C@@H](C)C(=O)N[C@@H](CC(C)C)C(N)=O)C(C)C [DRAMP02273a] (H-KIAKVALKAL-NH2)"
  Modal MIC50: "> 117.5 µM"
- compound: "CC[C@H](C)[C@H](NC(=O)[C@H](CCCCN)NC(=O)[C@H](CC(C)C)NC(=O)[C@H](C)NC(=O)[C@H](C)NC(=O)[C@H](CCCCN)NC(=O)[C@H](CC(C)C)NC(=O)[C@H](C)NC(=O)[C@H](CCCCN)NC(=O)CN)C(=O)NCC(=O)N[C@@H](C)C(=O)N[C@@H](CC(N)=O)C(=O)N[C@H](C(=O)N[C@@H](CC(C)C)C(=O)NCC(=O)NCC(=O)N[C@@H](C)C(=O)N1CCC[C@H]1C(=O)N[C@@H](CCC(N)=O)C(N)=O)C(C)C [CPF-P3-20a] (H-GKALKAALKIGANVLGGAPQ-NH2)"
  Modal MIC50: "> 65.7 µM"

INPUT: Requested field: Modal MIC50. Item: CC(C)[C@H](NC(=O)CNC(=O)[C@H](CCCNC(=N)N)NC(=O)[C@H](CCCNC(=N)N)NC(=O)[C@H](CS)NC(=O)[C@@H](NC(=O)[C@H](CS)NC(=O)[C@@H](N)CCCNC(=N)N)C(C)C)C(=O)N[C@@H](CS)C(=O)O [ThetaDefB] (H-RCVCRRGVC-OH; N-terminus and C-terminus assumed)
OUTPUT: > 116.4 µM

INPUT: Requested field: Modal MIC50. Item: CC(C)C[C@H](NC(=O)CNC(=O)[C@H](Cc1ccccc1)NC(=O)[C@H](CCCCN)NC(=O)[C@H](Cc1ccccc1)NC(=O)[C@H](C)NC(=O)[C@@H](N)CCCCN)C(=O)N[C@@H](CCCCN)C(=O)N[C@H](C(=O)N[C@H](C(N)=O)C(C)C)[C@@H](C)O [CPF-MW-10a] (H-KAFKFGLKTV-NH2)
OUTPUT: > 110.8 µM

INPUT: Requested field: Modal MIC50. Item: CC(C)[C@H](NC(=O)[C@H](CS)NC(=O)[C@@H](N)CCCNC(=N)N)C(=O)N[C@@H](CS)C(=O)N[C@H](C(=O)N[C@@H](CCCNC(=N)N)C(=O)NCC(=O)N[C@@H](Cc1ccccc1)C(=O)N[C@@H](CS)C(=O)O)[C@@H](C)O [ThetaDefA] (H-RCVCTRGFC-OH; N-terminus and C-terminus assumed)
OUTPUT: > 122.6 µM

INPUT: Requested field: Modal MIC50. Item: CC(C)C[C@H](NC(=O)CNC(=O)[C@H](Cc1ccccc1)NC(=O)[C@H](CCCCN)NC(=O)[C@H](Cc1ccccc1)NC(=O)[C@H](C)NC(=O)[C@@H](N)CCCCN)C(=O)N[C@@H](CCCCN)C(=O)N[C@H](C(=O)N[C@H](C(=O)NCC(=O)N[C@@H](CCCCN)C(N)=O)C(C)C)[C@@H](C)O [CPF-MW-12a] (H-KAFKFGLKTVGK-NH2)
OUTPUT: > 95.5 µM

INPUT: Requested field: Modal MIC50. Item: CC(C)[C@H](NC(=O)CNC(=O)[C@H](CCCNC(=N)N)NC(=O)[C@@H](N)CCCNC(=N)N)C(=O)N[C@@H](CS)C(=O)N[C@@H](CCCNC(=N)N)C(=O)N[C@@H](CS)C(=O)N[C@H](C(=O)N[C@@H](CS)C(=O)N[C@@H](CCCNC(=N)N)C(=O)N[C@@H](CCCNC(=N)N)C(N)=O)C(C)C [BTD11a] (H-RRGVCRCVCRR-NH2; N-terminus assumed)
OUTPUT: 2.9 µM

INPUT: Requested field: Modal MIC50. Item: CC[C@H](C)[C@H](NC(=O)[C@H](CCCCN)NC(=O)[C@H](CC(C)C)NC(=O)CNC(=O)[C@H](C)NC(=O)[C@H](CCCCN)NC(=O)[C@H](CC(C)C)NC(=O)[C@H](C)NC(=O)[C@H](CCCCN)NC(=O)CNC(=O)[C@H](CC(C)C)NC(=O)[C@@H](N)Cc1ccccc1)C(=O)NCC(=O)N[C@@H](CO)C(=O)N[C@@H](Cc1c[nH]cn1)C(=O)N[C@@H](CC(C)C)C(N)=O [CPF-P2a] (H-FLGKALKAGLKIGSHL-NH2)
OUTPUT: > 74 µM

INPUT: Requested field: Modal MIC50. Item: CC(C)[C@H](NC(=O)CNC(=O)[C@H](CCCNC(=N)N)NC(=O)[C@H](CCCNC(=N)N)NC(=O)[C@H](CS)NC(=O)[C@@H](NC(=O)[C@H](CS)NC(=O)[C@@H](N)CCCNC(=N)N)C(C)C)C(=O)N[C@@H](CS)C(=O)N[C@@H](CCCNC(=N)N)C(=O)N[C@@H](CS)C(=O)N[C@H](C(=O)N[C@@H](CS)C(=O)N[C@@H](CCCNC(=N)N)C(=O)N[C@@H](CCCNC(=N)N)C(N)=O)C(C)C [BTD15a] (H-RCVCRRGVCRCVCRR-NH2; N-terminus assumed)
OUTPUT: 70.2 µM

INPUT: Requested field: Modal MIC50. Item: CC[C@H](C)[C@H](NC(=O)[C@H](CCCCN)NC(=O)CNC(=O)[C@@H](N)CC(C)C)C(=O)N[C@@H](C)C(=O)N[C@@H](CCCCN)C(=O)N[C@H](C(=O)NCC(=O)N[C@@H](CC(C)C)C(=O)N[C@@H](CCCCN)C(N)=O)C(C)C [XPF10a] (H-LGKIAKVGLK-NH2)
OUTPUT: > 120.6 µM
